- Measured On: Voltage-gated potassium channel subunit beta-2 (Rattus norvegicus) (UniProt P62483)
- Sequence (P62483 whole entry, looked up): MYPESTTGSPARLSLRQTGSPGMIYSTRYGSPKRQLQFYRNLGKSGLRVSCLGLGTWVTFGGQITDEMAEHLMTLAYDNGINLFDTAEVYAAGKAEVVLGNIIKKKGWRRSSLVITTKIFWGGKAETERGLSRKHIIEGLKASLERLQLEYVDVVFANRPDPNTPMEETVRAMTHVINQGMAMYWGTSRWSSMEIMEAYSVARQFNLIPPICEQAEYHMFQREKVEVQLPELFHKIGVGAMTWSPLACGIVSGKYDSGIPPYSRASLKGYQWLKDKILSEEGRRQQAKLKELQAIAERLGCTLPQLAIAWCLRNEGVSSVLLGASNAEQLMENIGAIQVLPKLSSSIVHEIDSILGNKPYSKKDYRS
- Method Notes: inhibitors of rat Kvbeta2 reductase activity – biochemical, NADPH fluorescence, primary screen (AID 622);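 further: slope of raw intensity against log time taken from 70 to 1610 s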
- Experimental Parameters: recombinant KvBeta, 4-cyanobenzaldehyde reduction, at 10 µM, stronger effect = higher value
Assay Readout: fluorescence slope
Output spec: single numeric token, no unit.

Before answering, review these 6 worked examples.
Cc1ccc(Cl)cc1N1CCN(C(=O)CN2C(=O)c3cccc4cccc2c34)CC1    -0.341
O=C(NC1=NCCS1)NC12CC3CC(CC(C3)C1)C2    -0.598
Nc1nc2n(n1)C(c1cccc(Br)c1)CC(c1ccccc1)N2 (configuration not stated)    -0.59
O=C1NC(Cc2c[nH]c3ccccc23)C(=O)N1CCOc1ccccc1 (configuration not stated)    -0.429
CC(=O)Nc1ccc(NS(=O)(=O)C(F)(F)F)cc1    -0.353
CCOC(=O)c1ccc(NC(=O)c2ccc(NS(C)(=O)=O)cc2)cc1    -0.401

*Q* Suppose we examine the compound "O=C(COC(=O)c1ccccc1O)Nc1ccc(OC(F)F)cc1" ; what fluorescence slope value has been reported?
*A* -0.543

*Q* What fluorescence slope value was documented for this compound, "O=C(CSc1nnc2ccccn12)c1ccccc1" ?
*A* -0.46

*Q* Could you share which fluorescence slope value was measured for Cc1ccc2c(c1)NC(=O)C(CC(=O)NC1CCCCC1C)O2 (configuration not stated) ?
*A* -0.51

*Q* Would you kindly share the measured fluorescence slope for "O=C(CSc1nnc(CNC(=O)c2cccs2)o1)NC1CCCC1" ?
*A* -0.318

*Q* // returns reported fluorescence slope for input "CCc1ccc(NC(=O)c2cccnc2)cc1"
*A* -0.429

*Q* Recorded fluorescence slope for "COc1ccc(NC(=O)c2cc(C(C)C)on2)c(OC)c1" , please?
*A* -0.576

###

Let's look at some compounds and their measured nuclei count.
- Method Notes: endothelial E-selectin expression blockers – imaging, HUVEC, immunofluorescence, MLSMR starter and 10KST1 sets, primary screen (AID 487);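 further: 100% = median nuclei count of all wells on the same plate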
- Experimental Parameters: HUVEC TNFalpha-induced E-selectin immunofluorescence imaging, at 2 µM; measured here: cell number, toxicity
Lab book: enter the figure in %, no units written.

O=C(C1CCCN(S(=O)(=O)c2cnc[nH]2)C1)N1CC(=O)N(CCc2ccccc2)C(=O)C1 (stereo unspecified)    147
O=C(CSc1n[nH]c(-c2cccs2)n1)N1CCN(S(=O)(=O)c2ccccc2)CC1    140
CSc1nnc(-c2ccc(NC(=O)CCc3ccccc3)cc2)n1C    120
CCC(CC)n1[nH]c(=O)c2c(C)cc(C)nc21    106
COc1cc(-n2nc(C)c3c2OC(N)=C(C#N)C3c2ccccc2)c(Cl)c(Br)c1O (stereo unspecified)    108
CCOc1ccc(OCCCCN(C)C)cc1    104

*Q* Can you look up the measured nuclei count of "COC(=O)CCC(=O)Nc1cccc(Cl)c1" for me?
*A* 94.4

*Q* Given CC(C)OC(=O)c1ccc(NC(=O)C2C3CC4OC(=O)C2C4C3)cc1 (stereo unspecified) , state its recorded nuclei count.
*A* 151

*Q* Data request, read-out nuclei count, for CC(=O)NC(Cc1ccccc1)C(=O)NC1CCN(C(=O)c2cnccn2)CC1 (stereo unspecified)
*A* 120

*Q* If you can, please state the reported nuclei count value of "CCOc1ccc(N(CC(=O)OC)S(=O)(=O)c2ccc(OC)c(OC)c2)cc1" .
*A* 101

*Q* Would you mind telling me what nuclei count value was observed for CCOC(=O)C1CCCn2c1nc1sc3c(c1c2=O)CCCC3 (stereo unspecified) ?
*A* 115

*Q* Bench note: what nuclei count did CC(C)CC(OC(=O)c1cccs1)C(=O)NCc1ccco1 (stereo unspecified) show?
*A* 106

*Q* I have this compound here, "CCCN1C=CC(=C2C(=O)c3ccccc3C2=O)C=C1" , and I need its recorded nuclei count.
*A* 111

*Q* Item "O=C(COc1ccccc1Cl)NCCCN1CCOCC1" has what recorded nuclei count?
*A* 126

###

- Method Notes: endothelial E-selectin expression blockers – imaging, HUVEC, immunofluorescence, MLSMR starter and 10KST1 sets, primary screen (AID 487);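 further: 100% = median nuclei count of all wells on the same plate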
- Experimental Parameters: HUVEC TNFalpha-induced E-selectin immunofluorescence imaging, at 2 µM; measured here: cell number, toxicity
Assay Readout: nuclei count (%)
Dear colleague, please return just the value in %, with no unit written.

The cases that follow already have their nuclei count on record.
CCn1c(=O)c(C(=O)NCc2ccc(OC)cc2)c(O)c2ccccc21    101
Cc1ccc(C(=O)CC2(O)C(=O)N(C)c3ccc(Br)cc32)c(C)c1 (stereo unspecified)    123
CC(=O)N1CCN(S(=O)(=O)c2cccc(C(=O)Nc3ccc4c(c3)CCC4)c2)CC1    111
COCC(=O)Nc1cc(OC)ccc1OC    84.6
COc1cccc(C2CC(c3ccc(F)cc3)Nc3nc(N)nn32)c1 (stereo unspecified)    117
c1ccc(Cn2ncc3c2ncn2c(-c4ccncc4)nnc32)cc1    98.3
O=C(O)CCC(=O)c1c[nH]c2ccccc12    105
Cc1cc(C)c2c(n1)nn1c(N3CCN(c4cccc(Cl)c4)CC3)cc(C)nc21    130

*Q* Which nuclei count value belongs to CN1C(=O)CC(N2CCC(C(N)=O)(N3CCCCC3)CC2)C1=O (stereo unspecified) ?
*A* 117

*Q* Entry "Cc1csc(NC(=O)c2ccco2)n1" : reported nuclei count = ?
*A* 131

*Q* // nuclei count lookup, key: CC(c1ccco1)N(Cc1ccco1)C(=O)Nc1ccccc1 (stereo unspecified)
*A* 97.5

###

- Measured On: Voltage-gated potassium channel subunit beta-2 (Rattus norvegicus)
- Method Notes: inhibitors of rat Kvbeta2 reductase activity – biochemical, NADPH fluorescence, primary screen (AID 622);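 further: slope of raw intensity against log time taken from 70 to 1610 s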
- Experimental Parameters: recombinant KvBeta, 4-cyanobenzaldehyde reduction, at 10 µM, stronger effect = higher value
Examples of compounds with documented fluorescence slope follow.
Number, no unit, nothing else.

CCOc1ccc(-c2nnc3sc(-c4c(OC)cccc4OC)nn23)cc1    -0.609
CCOC(=O)Nc1nnc(-c2ccccc2OC)s1    -0.514
COc1ccccc1N(CC(=O)Nc1cccnc1)S(C)(=O)=O    -0.408

*Q* Find fluorescence slope (Voltage-gated potassium channel subunit beta-2 (Rattus norvegicus)) for the entry "O=C(COC(=O)CCC1CCCC1)Nc1ccc(Cl)cn1"
*A* -0.345

*Q* Return fluorescence slope measured with Voltage-gated potassium channel subunit beta-2 (Rattus norvegicus) given this compound: "N#Cc1ccc(CSc2nnc(-c3cccs3)n2-c2ccccc2)cc1"
*A* -0.5

*Q* Param readout= fluorescence slope; system= Voltage-gated potassium channel subunit beta-2 (Rattus norvegicus); entry= "CCOC(=O)C1CCN(Cc2ccc(OC)c(C)c2OC)CC1" ; returns value.
*A* -0.539

*Q* Which measured fluorescence slope belongs to "Cc1nnc(SCC(=O)N(C(C)C)C(C)C)nc1C" , tested on Voltage-gated potassium channel subunit beta-2 (Rattus norvegicus)?
*A* -0.599

*Q* Return fluorescence slope measured with Voltage-gated potassium channel subunit beta-2 (Rattus norvegicus) given this compound: O=C(COC(=O)c1ccccc1Oc1ccccc1)NC1CCS(=O)(=O)C1 (configuration not stated)
*A* -0.521

*Q* Give the reported fluorescence slope for "Cc1cccc(-c2nnn(CC/C(N)=N/O)n2)c1" (system: Voltage-gated potassium channel subunit beta-2 (Rattus norvegicus)).
*A* -0.496

###

- Method Notes: reduction of polyQ htt aggregates in cells – imaging, exon1htt(103Q)mCFP cells, high-content imaging, primary screen (AID 483);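 further: compound exposure lasted 3 days before fixation; percent of the per-plate median nuclei count of sample wells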
- Experimental Parameters: exon1htt(103Q)mCFP cell line, aggregate imaging, at 2 µM; measured here: cell count, toxicity
Measured nuclei count, listed per entry.
Just the number in %, nothing appended.

COc1ccccc1N1CC(O)=C(c2nc3ccccc3c(=O)[nH]2)C1=N    62.7

*Q* Field request: nuclei count | item: "O=C(COC(=O)C12CC3CC(CC(O)(C3)C1)C2)N1CCN(S(=O)(=O)c2ccc(Cl)cc2)CC1"
*A* 95.7

*Q* Quick one: nuclei count of "Cc1nn(C(=O)c2ccc3c(c2)OCO3)c(N)c1-c1ccccc1" ?
*A* 91.3

*Q* # get_value(readout='nuclei count', item= CC(O)c1c(OCc2ccccc2)ncnc1OCc1ccccc1 (stereo unspecified) )
*A* 65.7

*Q* Which nuclei count value belongs to O=S1(=O)CC(N2CCCCC2)C(N2CCCCC2)C1 (stereo unspecified) ?
*A* 110

*Q* GET /values?readout=nuclei count&item= "CCOc1ccc(-c2nnc(N)s2)cc1"
*A* 61.4

###

- Method Notes: inhibitors of TNFa-induced NFkB p65 translocation, primary screen, imaging, HUVEC, MLSMR starter and 10KST1 sets (AID 438);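 further: compound added about 3h40 before a 20 min TNFalpha stimulation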
- Experimental Parameters: HUVEC TNFa-induced p65 nuclear translocation; measured here: nuclei count (cytotoxicity indicator), at 2.08 µM
Assay Readout: cell count
Please reply with the value in numeric form only.

Use these answered entries as a reference point.
O=C(Nc1ncc2c(n1)CC(c1ccccc1)CC2=O)c1ccco1 (stereo unspecified)    572
O=C1CCCC2=C1C1(CCCC1)N=C(Nc1nc3ccccc3s1)N2    687
CCOc1ccccc1NC(=O)CN(c1ccc(C)cc1)S(=O)(=O)c1c(C)noc1C    322

*Q* Given the entry O=C(O)CC1NC(=O)N(c2ccccc2)C1=O (stereo unspecified) , report its measured cell count.
*A* 540

*Q* Which measured cell count value corresponds to "CCOc1cc(/C=N/n2cnnc2)cc(Br)c1O" ?
*A* 819

*Q* Reported cell count for CC(C)CC(c1nnnn1CC1CCCO1)N1CCN(Cc2ccc3c(c2)OCO3)CC1 (stereo unspecified) : what is it?
*A* 474
